assay: Therapeutic index, ratio of TC50 for human HuH-7-Luc/Neo-ET cells to EC50 for HCV infected in human HuH7-Luc/Neo-ET cells; assay type: toxicity
For each entry below, report its selectivity ratio value.

Look up selectivity ratio for this molecule: CC(C)OC(=O)[C@H](C)N[P@@](=O)(Oc1ccccc1)O[C@@H](C)[C@H]1O[C@@H](n2ccc(=O)[nH]c2=O)[C@](C)(O)[C@@H]1O
> 12.9

Consider the molecule shown here: CCCCCCCCCC(=O)Oc1ccc(COP(=O)(OCc2ccc(OC(=O)CCCCCCCCC)cc2)OP(=O)([O-])OC[C@H]2O[C@@H](n3ccc(=O)[nH]c3=O)[C@](C)(O)[C@@H]2O)cc1.CCCC[N+](CCCC)(CCCC)CCCC What is its recorded selectivity ratio?
> 2590

Would you mind telling me what selectivity ratio value was observed for CC(C)OC(=O)[C@H](C)N[P@](=O)(OC[C@H]1O[C@@H](n2ccc(=O)[nH]c2=O)[C@](C)(O)[C@@H]1O)Oc1ccccc1 ?
2780
